# reported mass density; entries follow
assay_setup: 355.15 K; 100 kPa; Liquid; Vibrating tube method
The reply should contain only the number, in kg/m3.

• CCCC[N+](C)(C)CC.O=S(=O)([N-]S(=O)(=O)C(F)(F)F)C(F)(F)F = 1322.5
• C[N+](CCO)(CCO)CCO.O=S(=O)([N-]S(=O)(=O)C(F)(F)F)C(F)(F)F = 1516.2
• CC[N+](C)(CCO)CCO.O=S(=O)([N-]S(=O)(=O)C(F)(F)F)C(F)(F)F = 1465.1
• CC[N+](CCO)(CCO)CCO.O=S(=O)([N-]S(=O)(=O)C(F)(F)F)C(F)(F)F = 1480.4

QUERY: Given CC[N+](C)(C)CCOC.O=S(=O)([N-]S(=O)(=O)C(F)(F)F)C(F)(F)F , state its recorded mass density.
RESULT: 1378.6

QUERY: GET /values?readout=mass density&item= CC[N+](C)(C)CCCO.O=S(=O)([N-]S(=O)(=O)C(F)(F)F)C(F)(F)F
RESULT: 1414.2

QUERY: Can you look up the measured mass density of CCCC[N+](CCO)(CCO)CCO.O=S(=O)([N-]S(=O)(=O)C(F)(F)F)C(F)(F)F for me?
RESULT: 1407.7

Reference for the values: the NIST ThermoML archive (doi:10.1021/acs.jced.9b00442)
